Target: T1, human LAG-3 on cells (HEK293-hLAG-3 stable cell line) (human, UniProt P18627 23-525)
T1 sequence: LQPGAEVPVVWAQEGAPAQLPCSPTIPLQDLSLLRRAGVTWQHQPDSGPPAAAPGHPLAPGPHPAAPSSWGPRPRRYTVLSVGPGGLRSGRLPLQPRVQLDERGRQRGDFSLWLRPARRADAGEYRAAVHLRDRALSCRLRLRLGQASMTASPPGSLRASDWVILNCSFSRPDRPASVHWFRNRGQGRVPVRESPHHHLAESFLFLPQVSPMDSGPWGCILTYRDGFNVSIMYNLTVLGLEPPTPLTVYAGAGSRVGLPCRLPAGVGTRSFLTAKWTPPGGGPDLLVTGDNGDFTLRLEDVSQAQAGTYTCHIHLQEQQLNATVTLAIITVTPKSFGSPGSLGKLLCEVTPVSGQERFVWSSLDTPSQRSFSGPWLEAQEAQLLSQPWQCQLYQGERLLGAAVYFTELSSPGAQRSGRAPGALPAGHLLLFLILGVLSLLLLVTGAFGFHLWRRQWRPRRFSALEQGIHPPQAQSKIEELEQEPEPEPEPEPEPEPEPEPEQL
Test: cell-based or functional assay
IL-2 production, SEB-dependent PBMC stimulation test, 2 ug/ml, N = 1 for assorted binders
Property Measured: IL-2 production, SEB-dependent PBMC stimulation test, 2 ug/ml, N = 1

Binder | Reported Value
105F1E10 mouse-human chimeric antibody (antibody, V domains shown, also called mAb009-105F1E10) VH: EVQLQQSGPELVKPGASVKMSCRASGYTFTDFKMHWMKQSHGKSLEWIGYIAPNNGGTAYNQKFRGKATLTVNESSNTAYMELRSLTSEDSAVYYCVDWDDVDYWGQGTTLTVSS VL: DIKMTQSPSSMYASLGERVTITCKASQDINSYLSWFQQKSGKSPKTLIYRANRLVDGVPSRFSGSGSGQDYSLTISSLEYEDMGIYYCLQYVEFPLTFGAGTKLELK | 3970 pg/mL
409B11E12 mouse-human chimeric antibody (antibody, V domains shown, also called mAb104-409B11E12) VH: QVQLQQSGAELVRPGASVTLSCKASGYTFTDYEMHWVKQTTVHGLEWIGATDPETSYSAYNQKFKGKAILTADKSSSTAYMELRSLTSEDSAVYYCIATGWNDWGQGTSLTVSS VL: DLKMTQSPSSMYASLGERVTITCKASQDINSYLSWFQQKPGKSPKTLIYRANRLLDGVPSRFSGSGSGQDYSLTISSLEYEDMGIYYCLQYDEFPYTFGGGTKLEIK | 2540 pg/mL
